Kd reference
Target: T1, recombinant human Macrophage Migration Inhibitory Factor (MIF 2-115) (human, UniProt P14174 2-115)
T1 construct: rhMIF bought from R&D Systems; The background describes MIF as a homotrimer but also as monomer, dimer or higher oligomers; In the cell assays (THP-1, human PBMC) the MIF is the cells' own; also called rhMIF; human MIF
T1 sequence (P14174 2-115): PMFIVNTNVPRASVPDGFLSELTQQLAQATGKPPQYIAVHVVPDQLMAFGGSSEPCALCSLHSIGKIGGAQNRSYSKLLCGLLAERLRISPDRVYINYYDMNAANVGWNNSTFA
Test: SPR (BIAcore T200), rhMIF immobilised on CM5 chip, 1:1 Langmuir model

# Binder, Unit string, Kd
data = [
    ("anti-MIF ISVD D4 (VHH, Family III; Expressed from pAX100, purified by IMAC) VHH: KVQLVESGGGLVQDGGSLRLSCAASGRTASIQVMGWFRQAPGKEREFVGNIGWNYGLTLYPDSVKGRFTISRDNAKNTVYLQMNNLKPEDTAVYYCAARIGTTTYDYWGQGTQVTVSS", "nM", 35),
    ("anti-MIF ISVD H9 (VHH, Family V. Expressed from pAX100, purified by IMAC) VHH: EVQLVESGGGLVHAGGSLRLSCAASGRTSSTYFMGWFRQAPGKAREFVANINFSGGTTVYASSVKGRFTISRDNSKNTVYLQLNSVKPEDTAVYYCSARGLNQEYDFWGQGTQVTVSS", "nM", 80.3),
    ("anti-MIF ISVD B5 (VHH, Family I. Expressed from pAX100, purified by IMAC) VHH: EVQLVESGGGLVQAGGSLRLSCAASGRSFSNYIMGWFRQAPGKEREFVANISWNYGTTFYADSVKGRFTISGDSAKNTVYLQMTSLKPEDTAVYYCAARPVRGGRNFDYWGQGTQVTVSS", "nM", 37.8),
    ("anti-MIF ISVD C10 (VHH, Family II; Expressed from pAX100, purified by IMAC) VHH: EVQLVESGGGLVQAGGSLRLSCAASGRTSSIVAIGWFRQAPGKEREFVSNIGWKFGSTVYVDSVKGRFTISKDNAKNTVYLQMNSLKPEDTAVYRCAARSDGRVYDSWGQGTQVTVSS", "nM", 41.2),
]
